Here, each record is paired with measured pKd data.
- tested_system: (NANP)6 (Plasmodium falciparum)
- assay_text: SPR, antibody on chip
The scale used: pKd is minus the common logarithm of the concentration in molar units.

binder	measured
AB-007067 (antibody, V domains shown) VH: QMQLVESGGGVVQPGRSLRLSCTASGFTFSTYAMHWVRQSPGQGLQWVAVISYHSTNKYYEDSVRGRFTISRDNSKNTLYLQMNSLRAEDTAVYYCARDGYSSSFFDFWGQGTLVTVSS VL: DIQMTQSPSTLSASVGDRVAITCRASQSISRWLAWYQQQPGKAPKLLMSSASVLESGVPSRFSGSGSGTEFTLTISSLQPDDFATYYCQHYNSYFVTFGQGTKVEIK	9.61
AB-007053 (antibody, V domains shown) VH: QMQLVESGGGVVQPGRSLRLSCTASGFTFSTYAMHWVRQSPGQGLQWVAVISYHSTQKYYEDSVRGRFTISRDNSKNTLYLQMNSLRAEDTAVYYCARDGYSSSFFDFWGQGTLVTVSS VL: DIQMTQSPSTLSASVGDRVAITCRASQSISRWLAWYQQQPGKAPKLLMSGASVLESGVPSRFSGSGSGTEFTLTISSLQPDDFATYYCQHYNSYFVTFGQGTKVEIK	8.85

# evaluate next
Exercise: For the binder shown here, AB-007041 (antibody, V domains shown) VH: QMQLVESGGGVVQPGRSLRLSCTASGFTFSDYAMHWVRQSPGQGLQWVAVISYHSTNKYYEDSVRGRFTISRDNSKNTLYLQMNSLRAEDTAVYYCARDGYSSSFFDFWGQGTLVTVSS VL: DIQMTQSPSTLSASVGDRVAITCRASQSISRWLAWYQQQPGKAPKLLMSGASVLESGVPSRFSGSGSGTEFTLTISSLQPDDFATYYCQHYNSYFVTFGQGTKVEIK , give the reported pKd.
Solution: 9.61
